test-system: PDE10A-PTXm-1 complex (Homo sapiens)
Construct: Catalytic domain of each protein was cloned between BamHI and XhoI restriction sites in; 6xHis-SUMO (N, cleaved yes); made in house; host or cells: E. coli Rosetta 2 (DE3)
Sequence (Q9Y233 718-1035 limits assumed, one chain of several): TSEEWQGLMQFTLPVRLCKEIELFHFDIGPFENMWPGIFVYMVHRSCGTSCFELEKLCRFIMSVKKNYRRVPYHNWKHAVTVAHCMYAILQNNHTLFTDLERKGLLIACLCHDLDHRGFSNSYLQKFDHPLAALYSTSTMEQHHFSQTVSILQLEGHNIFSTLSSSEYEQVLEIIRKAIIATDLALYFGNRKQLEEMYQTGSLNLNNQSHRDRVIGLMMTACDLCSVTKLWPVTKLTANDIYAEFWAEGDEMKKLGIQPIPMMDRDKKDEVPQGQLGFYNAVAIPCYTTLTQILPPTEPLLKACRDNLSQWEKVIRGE
assay-overview: Competitive ITC: PTX titrated against PDE10A-PTXm-1 complex
Assay type: binding
assay-context: PDE10A-PTXm-1 complex with 2:1 molar ratio
measurement-name: pKd
Interpret pKd as the negative base-10 log of the concentration measured in mol/L.

Simply: CC(=O)CCCCn1c(=O)c2c(ncn2C)n(C)c1=O [PTX, pentoxifylline] , PDE10A-PTXm-1 complex (Homo sapiens), pKd = 3.46
